Value source: paper PMC12015462

# System: Mycobacterium marinum
# experimental_protocol: Infection assay: intracellular M. marinum growth (luminescence) in D. discoideum
# Assay type: cell-based
# measurement_parameters: 72 h, conc 11.11111111 uM, vehicle control set at 1, read-out: mean normalized residual growth, Mm in infection
# Text: Since fractions were not weighed individually, the injection mass was used to calculate an average mass per fraction and thus a nominal mass concentration.
quantity_measured: activity at 11.1111 µM (%)
# output: bare number, implied unit %

| molecule | uom | activity at 11.1111 µM |
| --- | --- | --- |
| Oc1ccc(/C=C/c2cc(O)c3c(c2)O[C@H](c2ccc(O)cc2)[C@H]3c2cc(O)c3c(c2)O[C@H](c2ccc(O)cc2)[C@H]3c2cc(O)c3c(c2)O[C@H](c2ccc(O)cc2)[C@H]3c2cc(O)cc(O)c2)cc1 [Compound 8, Gnemonol B] | % | 124 |
| Oc1ccc(/C=C/c2cc(O)c3c(c2)O[C@@H](c2ccc(O)cc2O)[C@@H]3c2cc(O)cc(O)c2)cc1 (relative stereo) [Compound 1, (+)-Gnetin D] | % | 171 |
| Oc1ccc(/C=C/c2cc(O)c3c(c2)O[C@H](c2ccc(O)cc2)[C@H]3c2cc(O)c3c(c2)O[C@H](c2ccc(O)cc2)[C@H]3c2cc(O)c3c(c2)O[C@H](c2ccc(O)cc2O)[C@H]3c2cc(O)cc(O)c2)cc1 [Compound 7, Macrostachyol A] | % | 151 |

Here is the next item to consider.
Task item: Need activity at 11.1111 µM, item Oc1ccc(/C=C/c2cc(O)c3c(c2)O[C@@H](c2ccc(O)cc2)[C@@H]3c2cc(O)c3c(c2)O[C@H](c2ccc(O)cc2)[C@H]3c2cc(O)cc(O)c2)cc1 [Compound 6, (−)-Gnetin E]
Reply: 169

* * *

# key: entry, value: activity at 100 µM
# Tested on: Mycobacterium marinum
# experimental_protocol: Anti-biotic assay: M. marinum growth in broth (luminescence)
# Format: cell-based
# measurement_parameters: 72 h, read-out: mean (normalised M. marinum growth, Mm in broth)
The reply should be a number in %, with the unit left off.

Reference set (2 entries):
| compound | quantity_measured | uom | endpoint_result |
| --- | --- | --- | --- |
| Oc1ccc(/C=C/c2cc(O)c3c(c2)O[C@H](c2ccc(O)cc2O)[C@@H]3c2cc(O)cc(O)c2)cc1 (relative stereo) [Compound 2, (+)-Gnetupendin C] | activity at 100 µM | % | 109 |
| Oc1ccc(/C=C/c2cc(O)c3c(c2)O[C@H](c2ccc(O)cc2)[C@H]3c2cc(O)c3c(c2)O[C@H](c2ccc(O)cc2)[C@H]3c2cc(O)c3c(c2)O[C@H](c2ccc(O)cc2)[C@H]3c2cc(O)cc(O)c2)cc1 | activity at 100 µM | % | 114 |

Task item: Short answer please: activity at 100 µM, Mycobacterium marinum, entry Oc1ccc(/C=C/c2cc(O)c3c(c2)O[C@@H](c2ccc(O)cc2)[C@@H]3c2cc(O)c3c(c2)O[C@H](c2ccc(O)cc2)[C@H]3c2cc(O)cc(O)c2)cc1 [Compound 6, (−)-Gnetin E]
Reply: 110

Task item: Item: Oc1ccc(/C=C/c2cc(O)c3c(c2)O[C@@H](c2ccc(O)cc2O)[C@@H]3c2cc(O)cc(O)c2)cc1 (relative stereo) [Compound 1, (+)-Gnetin D] Test system: Mycobacterium marinum Read-out: activity at 100 µM Value: ?
Reply: 102

Task item: Request body: readout activity at 100 µM, system Mycobacterium marinum, query "Oc1ccc(/C=C/c2cc(O)c3c(c2)O[C@H](c2ccc(O)cc2)[C@H]3c2cc(O)c3c(c2)O[C@H](c2ccc(O)cc2)[C@H]3c2cc(O)c3c(c2)O[C@H](c2ccc(O)cc2O)[C@H]3c2cc(O)cc(O)c2)cc1" . Return the value.
Reply: 107

* * *

# System: Mycobacterium marinum
# experimental_protocol: Anti-biotic assay: M. marinum growth in broth (luminescence)
# Format: cell-based
# measurement_parameters: 72 h, read-out: mean (normalised M. marinum growth, Mm in broth)
quantity_measured: activity at 33.3333 µM (%)
Express your answer in %, writing the number without its unit.

# example entries with known answers
| molecule | activity at 33.3333 µM [%] |
| --- | --- |
| Oc1ccc(C=Cc2cc(O)cc3c2C(c2cc(O)cc(O)c2)C(c2ccc(O)c4c2OC(c2ccc(O)cc2O)C4c2cc(O)cc(O)c2)O3)cc1 (single isomer, unassigned; (-)) [Compound 11, (−)-Gnetuhainin M] | 92.2 |
| Oc1ccc(/C=C/c2cc(O)c3c(c2)O[C@@H](c2ccc(O)cc2)[C@@H]3c2cc(O)c3c(c2)O[C@H](c2ccc(O)cc2)[C@H]3c2cc(O)cc(O)c2)cc1 [Compound 6, (−)-Gnetin E] | 118 |
| Oc1ccc(/C=C/c2cc(O)c3c(c2)O[C@@H](c2ccc(O)cc2)[C@@H]3c2cc(O)c3c(c2)O[C@H](c2ccc(O)cc2O)[C@H]3c2cc(O)cc(O)c2)cc1 [Compound 5, (−)-Latifolol] | 95.8 |
| Oc1ccc(/C=C/c2cc(O)c3c(c2)O[C@@H](c2ccc(O)cc2)[C@@H]3c2cc(O)c3c(c2)O[C@@H](c2ccc(O)cc2O)[C@H]3c2cc(O)cc(O)c2)cc1 [Compound 4, (−)-Gnetoline A] | 110 |
| Oc1ccc(/C=C/c2cc(O)c3c(c2)O[C@H](c2ccc(O)cc2O)[C@@H]3c2cc(O)cc(O)c2)cc1 (relative stereo) [Compound 2, (+)-Gnetupendin C] | 110 |

Task item: Form field: reported activity at 33.3333 µM of Oc1cc(O)cc([C@H]2c3c(O)cc(/C=C/c4ccc(O)cc4O)cc3O[C@@H]2c2ccc(O)cc2O)c1 (relative stereo) [Compound 10, (−)-Gnetumontanin A]
Reply: 99.7

Task item: Return reported activity at 33.3333 µM; argument: Oc1ccc(/C=C/c2cc(O)c3c(c2)O[C@@H](c2ccc(O)cc2O)[C@@H]3c2cc(O)cc(O)c2)cc1 (relative stereo) [Compound 1, (+)-Gnetin D]
Reply: 110

Task item: Could you tell me which activity at 33.3333 µM is on file for Oc1ccc([C@@H]2Oc3cc(O)ccc3[C@H]3[C@H](c4cc(O)cc(O)c4)c4c(O)cc(O)cc4[C@H]32)cc1 [Compound 9, (−)-Gnemontanin G] ?
Reply: 89.2

* * *

# System: Mycobacterium marinum
# experimental_protocol: Infection assay: intracellular M. marinum growth (luminescence) in D. discoideum
# Type: cell-based
# measurement_parameters: 72 h, conc 33.33333333 uM, vehicle control set at 1, read-out: median normalized residual growth, Mm in infection
# Source text: Since fractions were not weighed individually, the injection mass was used to calculate an average mass per fraction and thus a nominal mass concentration.
quantity_measured: activity at 33.3333 µM (%)
API: value field is a number in %; no unit string.

Here is how some compounds turned out for activity at 33.3333 µM.
| compound | assayed_system | uom | activity at 33.3333 µM |
| --- | --- | --- | --- |
| Oc1ccc(/C=C/c2cc(O)c3c(c2)O[C@@H](c2ccc(O)cc2)[C@@H]3c2cc(O)c3c(c2)O[C@H](c2ccc(O)cc2O)[C@H]3c2cc(O)cc(O)c2)cc1 [Compound 5, (−)-Latifolol] | Mycobacterium marinum | % | 81.6 |
| Oc1ccc(/C=C/c2cc(O)c3c(c2)O[C@H](c2ccc(O)cc2)[C@H]3c2cc(O)c3c(c2)O[C@H](c2ccc(O)cc2)[C@H]3c2cc(O)c3c(c2)O[C@H](c2ccc(O)cc2)[C@H]3c2cc(O)cc(O)c2)cc1 | Mycobacterium marinum | % | 117 |
| Oc1ccc(/C=C/c2cc(O)c3c(c2)O[C@H](c2ccc(O)cc2)[C@H]3c2cc(O)c3c(c2)O[C@H](c2ccc(O)cc2)[C@H]3c2cc(O)c3c(c2)O[C@H](c2ccc(O)cc2O)[C@H]3c2cc(O)cc(O)c2)cc1 | Mycobacterium marinum | % | 76 |
| Oc1ccc(/C=C/c2cc(O)c3c(c2)O[C@@H](c2ccc(O)cc2)[C@@H]3c2cc(O)c3c(c2)O[C@H](c2ccc(O)cc2)[C@H]3c2cc(O)cc(O)c2)cc1 [Compound 6, (−)-Gnetin E] | Mycobacterium marinum | % | 95.4 |

Task item: Given the compound Oc1ccc(/C=C/c2cc(O)c3c(c2)O[C@H](c2ccc(O)cc2O)[C@@H]3c2cc(O)cc(O)c2)cc1 (relative stereo) [Compound 2, (+)-Gnetupendin C] , what is its reported activity at 33.3333 µM?
Reply: 105

Task item: Name the reported activity at 33.3333 µM value associated with the compound Oc1ccc(/C=C/c2cc(O)c3c(c2)O[C@@H](c2ccc(O)cc2)[C@@H]3c2cc(O)c3c(c2)O[C@@H](c2ccc(O)cc2O)[C@H]3c2cc(O)cc(O)c2)cc1 [Compound 4, (−)-Gnetoline A]
Reply: 86.1

Task item: Data request, read-out activity at 33.3333 µM, for Oc1cc(O)cc([C@H]2c3c(O)cc(/C=C/c4ccc(O)cc4O)cc3O[C@@H]2c2ccc(O)cc2O)c1 (relative stereo) [Compound 10, (−)-Gnetumontanin A]
Reply: 160

Task item: Item Oc1ccc(C=Cc2cc(O)cc3c2C(c2cc(O)cc(O)c2)C(c2ccc(O)c4c2OC(c2ccc(O)cc2O)C4c2cc(O)cc(O)c2)O3)cc1 (single isomer, unassigned; (-)) [Compound 11, (−)-Gnetuhainin M] has what recorded activity at 33.3333 µM?
Reply: 31.3

Task item: Could you tell me which activity at 33.3333 µM is on file for Oc1ccc([C@@H]2Oc3cc(O)ccc3[C@H]3[C@H](c4cc(O)cc(O)c4)c4c(O)cc(O)cc4[C@H]32)cc1 [Compound 9, (−)-Gnemontanin G] ?
Reply: 72.4

Task item: # activity at 33.3333 µM lookup, item Oc1ccc(/C=C/c2cc(O)c3c(c2)O[C@@H](c2ccc(O)cc2O)[C@@H]3c2cc(O)cc(O)c2)cc1 (relative stereo) [Compound 1, (+)-Gnetin D]
Reply: 169
